B1: Cytosolic beta-glucosidase, O61594 (parent)
chain: MKLLVVLSLVAVACNASIVRQQRRFPDDFLFGTATASYQIEGAWDEDGKGENIWDYMVHNTPEVIRDLSNGDIAADSYHNYKRDVEMMRELGLDAYRFSLSWARILPTGMANEVNPAGIAFYNNYIDEMLKYNITPLITLYHWDLPQKLQELGGFANPLISDWFEDYARVVFENFGDRVKMFITFNEPREICFEGYGSATKAPILNATAMGAYLCAKNLVTAHAKAYYLYDREFRPVQGGQCGITISVNWFGPATPTPEDEMAAELRRQGEWGIYAHPIFSAEGGFPKELSDKIAEKSAQQGYPWSRLPEFTEEEKAFVRGTSDLIGVNHYTAFLVSATERKGPYPVPSLLDDVDTGSWADDSWLKSASAWLTLAPNSIHTALTHLNNLYNKPVFYITENGWSTDESRENSLIDDDRIQYYRASMESLLNCLDDGINLKGYMAWSLMDNFEWMEGYIERFGLYEVDFSDPARTRTPRKAAFVYKHIIKHRVVDYEYEPETMVMTIDEGH

Variants of: B1
Measurement parameters: Spodoptera frugiperda; pH 6; Thermal; CD; Potassium phosphate 10mM; transition: 2; structure 5CG0; whole UniProt chain shown
Reported values of Tm for individual entries
# value in °C; strip the unit string

F334A 42.9
L389A 46.4
F251A 42.2

Field Tm (entry `M262F` ) reads 45.7

Cited source: FireProtDB (doi:10.1111/febs.13659)
